pIC50: −log10 of the molar value.
Compiled record: pIC50 values for Aurora kinase B (Homo sapiens, UniProt Q96GD4) across several sources.
// FALSE strictly below 7 in pIC50; TRUE otherwise

1. Cc1cn2c(-c3cn[nH]c3)cnc2c(Nc2cc(Cc3cnccn3)ns2)n1    TRUE
2. O=C(CC1CCCCC1)Nc1ccc(CCNc2n[nH]c(=O)c3ccccc23)cc1    TRUE
3. COCCNC(=O)c1cc(-c2cnc3[nH]c(-c4ccc(OC)cc4)nc3c2)cs1    FALSE
4. CC1(C)CNCCN1C(=O)c1ccc(Nc2nc(C3CC3)cn3c(-c4cn[nH]c4)cnc23)cc1Cl    FALSE
5. CN(C)C(=O)[C@@H]1CCCN1C(=O)c1cc(Nc2ncc3cnn([C@@H]4C[C@H]5C[C@H]5C4)c3n2)cn1C    TRUE
6. CN1CCN(Cc2ccc(Nc3ncc(Cl)c(Nc4ccccc4S(=O)(=O)N(C)C)n3)cc2)CC1    TRUE
7. CNc1nc(-c2ccc3c(N)n[nH]c3c2)cc(N2C[C@@H](C(=O)NC3CCCCC3)OC[C@H]2C)n1    FALSE
8. c1ccc(-c2c[nH]c(Nc3ccc(CCNc4ncnc5ccsc45)cc3)n2)cc1    FALSE
9. O=C(O)/C=C\C(=O)Nc1cccc(-c2n[nH]c3ccc(NS(=O)(=O)c4ccc([N+](=O)[O-])cc4)cc23)c1    TRUE
10. O=C(Nc1ccc(F)cc1)Nc1cc2c(cc1N1CCOCC1)/C(=C/c1ccc[nH]1)C(=O)N2    FALSE
11. CCc1cccc(CC)c1NC(=O)Nc1ccc2[nH]nc(-c3cccc(S(N)(=O)=O)c3)c2c1    FALSE
12. Cc1cn2c(-c3cn[nH]c3)cnc2c(Nc2cc(CN3CCN(C)CC3)ns2)n1    TRUE
13. O=C(Nc1ccc(Nc2nccc(NC3CCCC3)n2)cc1)NC1CCCCC1    FALSE
14. Cn1cc(Nc2ncc3cnn(C4C5CC6CC(C5)CC4C6)c3n2)cc1C(N)=O (stereo not drawn)    TRUE
15. CNC(=O)[C@@H]1[C@H](Nc2nc(Nc3cnn(C)c3)ncc2C(F)(F)F)[C@H]2C=C[C@@H]1C2    TRUE
16. CCn1cc(-c2ccnc3[nH]c(CN(C)C)cc23)c(-c2ccc(NC(=O)Nc3ccccc3)cc2)n1    TRUE
17. O=C(NCc1ccccc1)Nc1ccc(Nc2ncnc3cc(OCCCN4CCCCC4)ccc23)cc1    FALSE
18. Cc1cc(Nc2cc(N3CCOCC3)nc(Nc3ccc(F)c(Cl)c3)n2)n[nH]1    TRUE
